Molecular target: T1, Peptide 8: Biotin-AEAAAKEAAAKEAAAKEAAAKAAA-Tyr-acid (N-terminal biotin; C-terminal acid)
T1 construct: control peptide without PC
T1 peptide: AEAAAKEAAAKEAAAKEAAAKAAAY
Assay: scFv ELISA
Protocol: For ELISA analysis of scFv binding, 96-well polystyrene plates were coated with Peptide 1, 4, 5, 8 or 100 μL BSA (10 μg/mL) in PBS at 4° C. overnight. […] All plates were washed three times with PBS-Tween before 40 μL aliquots of PPE were added to assay plates along with 50 μL 10% BSA, and plates were incubated for 1 hour at room temperature. […] The amount of scFv bound to each well was quantitated from absorbance measurement at 450 nm (OD450).
Measurement Label: OD450 (OD450)
Give your result in OD450 as a bare value.

Lookup: Give the measured OD450 of PcOxP_DB02_F07 (scFv, V domains shown, scFv in periplasmic extract) VH: EVQLLESGGGLVQPGGSLRLSCAASGFWFSDFYMEWVRQAPGKGLEWVAASRNKANDYTTEYADSVKGRFTISRDNSKNTLYLQMNSLRAEDTAVYYCARDYYGSSYWYFDVWGQGTLVTVSS VL: DIQMTQSPSSLSASVGDRVTITCTASQSLYSSKNKVHYLAWYQQKPGKAPKLLIYGESNRYIGVPSRFSGSGSGTDFTLTISSLQPEDFATYYCAQFYSYPLTFGGGTKVEIK .
Found: 0.05

Lookup: Thanks! And PcOxP_DB01_F10 (scFv, V domains shown, scFv in periplasmic extract) VH: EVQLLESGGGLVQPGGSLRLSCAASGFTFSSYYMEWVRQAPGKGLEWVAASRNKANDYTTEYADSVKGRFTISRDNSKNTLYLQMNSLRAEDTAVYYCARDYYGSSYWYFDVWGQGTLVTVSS VL: DIQMTQSPSSLSASVGDRVTITCTASESLYSSKHKVHYLAWYQQKPGKAPKLLIYGASNGYIGVPSRFSGSGSGTDFTLTISSLQPEDFATYYCAQFYTYPLTFGGGTKVEIK ?
Found: 0.05

Lookup: Continue with PcOxP_DB02_A09 (scFv, V domains shown, scFv in periplasmic extract) VH: EVQLLESGGGLVQPGGSLRLSCAASGFTFSDTYMEWVRQAPGKGLEWVAASRNKANDYTTEYADSVKGRFTISRDNSKNTLYLQMNSLRAEDTAVYYCARDYYGSSYWYFDVWGQGTLVTVSS VL: DIQMTQSPSSLSASVGDRVTITCTASESLYSSKHKVHYLAWYQQKPGKAPKLLIYGASNRQSGVPSRFSGSGSGTDFTLTISSLQPEDFATYYCAQFYWYPLTFGGGTKVEIK
Found: 0.04
